Reported GI50 by item:
test system: RXF 631; experiment: NCI tumour cell line growth inhibition, 48 h
Activity calls are given as the source filed them. Cut-off read from the data, not from the text of the source: active = GI50 up to about 1.1 µM and inactive = higher.
Readout Kind: GI50

> print(dat)
                                    compound              reading
 1  CN1C(c2ccccc2)CC(=NOCc2ccccc2)CC1c1ccccc1 (stereo not given)   31.2 µM (inactive)
 2            N#CCCN(CCC#N)c1ccc(C(=O)NN)cc1  > 100 µM (inactive)
 3              CN[C@@H](C)[C@H](NC)c1ccccc1  > 100 µM (inactive)
 4  CCCCCCCCCCCC(=O)OC(COC(N)=O)COc1ccc(Cl)cc1 (stereo not given)   26.2 µM (inactive)
 5  O=C1CCC(c2ccccc2)C(O)(C(=O)O)C1 (stereo not given)  > 100 µM (inactive)
 6  Cc1ccc(-c2cc(-c3ccco3)c(C#N)c(=O)n2C2OC(OC(=O)c3ccccc3)C(OC(=O)c3ccccc3)C2OC(=O)c2ccccc2)cc1 (stereo not given)  > 100 µM (inactive)
 7  CC(=O)NC1C(=O)CC(c2ccccc2)N(C)C1c1ccccc1 (stereo not given)  > 100 µM (inactive)
 8  COC1=CC(=O)C(O)=C(CC2(C)C(C)CCC3(C)C2CCCC3(C)C)C1=O (stereo not given)   25.7 µM (inactive)
 9                     O=C(O)C12CCCC(CCC1)C2  > 100 µM (inactive)
10              O=C(O)c1ccccc1NC(=O)C1CCCCC1  > 100 µM (inactive)

This collection of values is drawn from ChEMBL document CHEMBL1201862.
